# study-system: Insulin receptor-related protein (Homo sapiens);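 note: mean percent inhibition of IRR, reported within the GSK PKIS screening panel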
# conditions: at 0.1 µM
Listed here are compounds together with their documented inhibition.
Field format: number, assumed %, no unit text.

Recorded results for 5 compounds are shown here.
[
  {
    "substance-smiles": "c1cnn2ncc(-c3ccnc(Nc4ccc5c(c4)OCCO5)n3)c2c1",
    "study-system": "Insulin receptor-related protein (Homo sapiens)",
    "unit-info": "%",
    "observed-measurement": 5.36
  },
  {
    "substance-smiles": "Cc1cccc(-c2n[nH]cc2-c2ccc3ncccc3n2)n1",
    "study-system": "Insulin receptor-related protein (Homo sapiens)",
    "unit-info": "%",
    "observed-measurement": -0.57
  },
  {
    "substance-smiles": "CN1CCC(C(=O)Nc2n[nH]c3nnc(-c4ccccc4)cc23)CC1",
    "study-system": "Insulin receptor-related protein (Homo sapiens)",
    "unit-info": "%",
    "observed-measurement": 1.63
  },
  {
    "substance-smiles": "O=C1NC(=O)C(N2CCc3ccccc32)=C1c1ccc(Cl)cc1",
    "study-system": "Insulin receptor-related protein (Homo sapiens)",
    "unit-info": "%",
    "observed-measurement": 2.18
  },
  {
    "substance-smiles": "O=C1NC(=O)C(c2ccc(Cl)cc2)=C1Nc1ccc(Cl)c(C(=O)O)c1",
    "study-system": "Insulin receptor-related protein (Homo sapiens)",
    "unit-info": "%",
    "observed-measurement": -0.43
  }
]

Turning now to a further compound:
The compound NC(=O)c1ccc(-c2nc(-c3ccccn3)c(-c3ccc4c(c3)OCO4)[nH]2)cc1 showed inhibition equal to 3.02

---

Listed here are molecules together with their documented inhibition.
# study-system: Casein kinase II subunit alpha (Homo sapiens) (UniProt P68400)
# Sequence (P68400 whole entry, looked up): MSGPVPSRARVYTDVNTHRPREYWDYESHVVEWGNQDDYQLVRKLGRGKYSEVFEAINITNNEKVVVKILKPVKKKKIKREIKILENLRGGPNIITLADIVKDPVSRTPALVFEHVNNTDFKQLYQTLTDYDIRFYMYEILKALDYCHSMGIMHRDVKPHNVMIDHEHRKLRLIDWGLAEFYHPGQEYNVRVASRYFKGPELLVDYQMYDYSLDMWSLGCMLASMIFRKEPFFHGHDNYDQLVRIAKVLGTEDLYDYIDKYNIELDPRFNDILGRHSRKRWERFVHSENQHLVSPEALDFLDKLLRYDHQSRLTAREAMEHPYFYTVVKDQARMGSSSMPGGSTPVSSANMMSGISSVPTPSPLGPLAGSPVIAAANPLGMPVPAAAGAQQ
# conditions: at 0.1 µM
# Description: GSK_PKIS: CK2 mean inhibition at 0.1 uM [Nanosyn]
Field format: number, assumed %, no unit text.

[
  {
    "molecule": "Fc1cccc(COc2ccc(Nc3ncnc4sc(-c5cccs5)cc34)cc2Cl)c1",
    "inhibition (%)": -0.4
  },
  {
    "molecule": "NCc1ccc(-c2nc(-c3ccc(Cl)c(O)c3)c(-c3ccncc3)[nH]2)cc1",
    "inhibition (%)": 0.86
  },
  {
    "molecule": "O=C1Nc2ccc(C(=O)c3ccco3)cc2C1=Cc1cc(Cl)c(O)c(Cl)c1",
    "inhibition (%)": 18
  }
]

The molecule O=C1NC(=O)C(N2CCc3ccccc32)=C1c1ccc(Cl)cc1 showed inhibition equal to 1.59

The molecule O=C1NC(=O)C(c2ccccc2Cl)=C1Nc1cccc(O)c1 showed inhibition equal to 0.98

The molecule CCc1cccc(NC(=O)Nc2ccc(Oc3ccc4nc(NC(=O)OC)[nH]c4c3)cc2)c1 showed inhibition equal to 1.32

The molecule CCn1c(-c2nonc2N)nc2c(C#CC(C)(C)O)nc(OC[C@@H](N)c3ccccc3)cc21 showed inhibition equal to 0.95

The molecule CCN1CCC(CC(=O)Nc2n[nH]c3nc(-c4cccs4)c(Br)cc23)CC1 showed inhibition equal to 1.1

The molecule O=C(Nc1n[nH]c2nc(-c3ccco3)c(Br)cc12)C1CC1 showed inhibition equal to -0.1

The molecule COC(=O)Nc1nc2cc(Oc3cccc(NC(=O)Nc4cc(C(F)(F)F)ccc4F)c3)ccc2[nH]1 showed inhibition equal to -0.44

The molecule CS(=O)(=O)CCN(CC#N)Cc1ccc(-c2ccc3ncnc(Nc4ccc(OCc5cccc(F)c5)c(Cl)c4)c3c2)o1 showed inhibition equal to 5.37

The molecule O=C1NC(=O)C(c2ccc(Cl)cc2)=C1Nc1ccc(Cl)c(C(=O)O)c1 showed inhibition equal to -0.4

The molecule Nc1ncnc2occ(-c3ccc(NC(=O)Nc4cc(C(F)(F)F)cc(C(F)(F)F)c4)cc3)c12 showed inhibition equal to 0.36

The molecule Cc1nnc(-c2ccc(C)c(-c3ccc(C(=O)Nc4cccc(C#N)c4)cc3)c2)o1 showed inhibition equal to 1.51

The molecule NS(=O)(=O)c1cccc(-c2ccc3c(NC(=O)C4CC4)n[nH]c3c2)c1 showed inhibition equal to 0.11

The molecule CC1=C(C(=O)Nc2ccc3[nH]ncc3c2)C(c2ccc3ccccc3c2)CC(=O)N1 (stereo not given) showed inhibition equal to 3.48

The molecule NC(=O)c1ccc(-c2nc(-c3ccccn3)c(-c3ccc4c(c3)OCO4)[nH]2)cc1 showed inhibition equal to 2.1

The molecule COc1ccc(COc2ccc(Cc3cnc(N)nc3N)cc2OC)cc1 showed inhibition equal to -2.39

The molecule CCn1c(-c2nonc2N)nc2cncc(C(=O)N3CCNCC3)c21 showed inhibition equal to 4.04

The molecule Cc1ccc(NC(=O)c2ccnc(N3CCCC3)c2)cc1-c1ccc(C(=O)NCC2CC2)cc1 showed inhibition equal to 7.04
